Data origin, for the record: patent US20220387375A1

Please go through the items and note down their Rate of inactivation.
# assay-target: TRPV1 (Rattus norvegicus)
# Construct: FLAG; expressed in transfected cells
# method-summary: Whole-cell patch clamp of TRPV1 currents in HEK293 cells overexpressing TRPV1 (HEK293-V1)
# Assay type: cell-based
# applied-conditions: dose 30 micromolar
One number for each entry, in dpsec^−1.

CCCCCc1cc(O)c2c(c1)OC(C)(C)c1ccc(C)cc1-2 | 0

Now for a further compound.
What Rate of inactivation value was documented for this compound, C=C(C)[C@@H]1CCC(C)=C[C@H]1c1c(O)cc(CCCCC)cc1O ?
0

* * *

Please go through the items and note down their Time to max.
# assay-target: TRPV1 (Rattus norvegicus, UniProt O35433)
# Construct: FLAG; expressed in transfected cells
# Sequence (O35433 whole entry): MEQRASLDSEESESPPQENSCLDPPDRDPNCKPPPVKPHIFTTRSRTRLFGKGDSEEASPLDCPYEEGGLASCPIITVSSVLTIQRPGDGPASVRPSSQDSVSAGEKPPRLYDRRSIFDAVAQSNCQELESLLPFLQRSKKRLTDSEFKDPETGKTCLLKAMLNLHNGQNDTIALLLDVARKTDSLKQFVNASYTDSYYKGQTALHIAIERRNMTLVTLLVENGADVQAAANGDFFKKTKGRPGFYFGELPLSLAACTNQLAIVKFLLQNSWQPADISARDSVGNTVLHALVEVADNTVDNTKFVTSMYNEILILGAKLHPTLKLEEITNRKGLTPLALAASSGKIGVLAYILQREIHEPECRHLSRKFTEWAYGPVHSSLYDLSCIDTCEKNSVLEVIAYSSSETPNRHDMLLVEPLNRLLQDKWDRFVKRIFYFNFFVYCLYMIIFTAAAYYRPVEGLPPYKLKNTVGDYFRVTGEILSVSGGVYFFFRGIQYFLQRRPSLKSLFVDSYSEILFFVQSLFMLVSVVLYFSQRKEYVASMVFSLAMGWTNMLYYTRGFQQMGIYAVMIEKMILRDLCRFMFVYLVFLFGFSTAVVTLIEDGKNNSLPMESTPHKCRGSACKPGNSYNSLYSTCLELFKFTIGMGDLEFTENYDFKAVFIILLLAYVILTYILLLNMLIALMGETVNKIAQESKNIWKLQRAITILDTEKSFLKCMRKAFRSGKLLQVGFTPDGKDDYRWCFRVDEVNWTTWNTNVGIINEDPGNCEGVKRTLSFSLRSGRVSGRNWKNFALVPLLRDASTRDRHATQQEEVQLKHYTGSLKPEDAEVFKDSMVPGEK
# method-summary: Whole-cell patch clamp of TRPV1 currents in HEK293 cells overexpressing TRPV1 (HEK293-V1)
# Assay type: cell-based
# applied-conditions: dose 10 micromolar
One number for each entry, in s.

Below, 3 compounds whose answers are already recorded.
CCCCCc1cc(O)c(C/C=C(\C)CCC=C(C)C)c(O)c1 | 120
CCCCCc1cc(O)c2c(c1)OC(C)(C)c1ccc(C)cc1-2 | 174
C=C(C)[C@@H]1CCC(C)=C[C@H]1c1c(O)cc(CCCCC)cc1O | 178

What Time to max value was documented for this compound, C=C(C)[C@@H]1CCC(C)=C[C@H]1c1c(O)cc(CCC)cc1O ?
148

* * *

# assay-target: TRPV1 (Rattus norvegicus)
# Construct: FLAG; expressed in transfected cells
# method-summary: Whole-cell patch clamp of TRPV1 currents in HEK293 cells overexpressing TRPV1 (HEK293-V1)
# Type: cell-based
# applied-conditions: dose 150 micromolar
assay-metric: Time to max (s)
Give bare numbers, in s.

C=C(C)[C@@H]1CCC(C)=C[C@H]1c1c(O)cc(CCCCC)cc1O | 96
C=C(C)[C@@H]1CCC(C)=C[C@H]1c1c(O)cc(CCC)cc1O | 62
CCCCCc1cc(O)c2c(c1)OC(C)(C)c1ccc(C)cc1-2 | 82

Now for a further molecule.
What Time to max value was documented for this molecule, CCCCCc1cc(O)c(C/C=C(\C)CCC=C(C)C)c(O)c1 ?
92

* * *

# assay-target: TRPA1 (Homo sapiens, UniProt O75762)
# Construct: host or cells: HEK TRex293
# Sequence (O75762 whole entry): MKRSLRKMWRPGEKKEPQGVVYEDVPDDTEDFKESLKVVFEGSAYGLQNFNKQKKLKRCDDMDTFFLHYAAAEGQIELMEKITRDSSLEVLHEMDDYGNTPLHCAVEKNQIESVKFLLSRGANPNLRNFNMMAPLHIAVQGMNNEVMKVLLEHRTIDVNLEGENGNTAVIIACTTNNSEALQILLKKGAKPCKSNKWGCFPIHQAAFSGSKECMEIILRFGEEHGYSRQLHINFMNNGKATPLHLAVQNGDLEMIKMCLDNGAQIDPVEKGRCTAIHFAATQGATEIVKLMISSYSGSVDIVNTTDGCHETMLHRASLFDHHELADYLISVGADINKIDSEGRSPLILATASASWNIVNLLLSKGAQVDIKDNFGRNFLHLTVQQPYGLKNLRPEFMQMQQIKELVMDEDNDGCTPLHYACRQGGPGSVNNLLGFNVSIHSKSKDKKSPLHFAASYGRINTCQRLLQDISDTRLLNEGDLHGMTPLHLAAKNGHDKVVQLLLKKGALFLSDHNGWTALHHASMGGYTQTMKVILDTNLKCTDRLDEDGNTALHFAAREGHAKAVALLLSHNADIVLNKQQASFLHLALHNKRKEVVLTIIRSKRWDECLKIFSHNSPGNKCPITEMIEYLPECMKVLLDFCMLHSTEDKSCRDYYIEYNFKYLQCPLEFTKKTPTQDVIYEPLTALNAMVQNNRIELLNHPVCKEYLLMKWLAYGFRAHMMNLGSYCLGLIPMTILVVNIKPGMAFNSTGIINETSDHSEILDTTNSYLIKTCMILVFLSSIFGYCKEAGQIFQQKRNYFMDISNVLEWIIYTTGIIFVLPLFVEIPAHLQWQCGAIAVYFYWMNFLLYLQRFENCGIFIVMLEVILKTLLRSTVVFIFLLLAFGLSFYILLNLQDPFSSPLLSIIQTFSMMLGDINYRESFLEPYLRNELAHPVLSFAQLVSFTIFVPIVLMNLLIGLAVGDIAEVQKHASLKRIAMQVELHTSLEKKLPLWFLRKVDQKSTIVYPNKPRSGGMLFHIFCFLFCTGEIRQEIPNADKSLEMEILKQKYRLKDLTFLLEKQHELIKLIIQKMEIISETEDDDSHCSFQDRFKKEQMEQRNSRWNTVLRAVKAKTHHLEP
# method-summary: Bulk calcium assay (Fluo-4) in HEK cells overexpressing TRPA1
# Type: cell-based
assay-metric: mean maximal Ca^2+ signal RFU achieved 0-180 s (SD), TRPA1

Below, 3 compounds whose answers are already recorded.
CCCCCc1cc(O)c2c(c1)OC(C)(CCC=C(C)C)C=C2 (stereo not shown) | 15.13 (3.35) RFU
C=C(C)[C@@H]1CCC(C)=C[C@H]1c1c(O)cc(CCCCC)c(C(=O)O)c1O | 10.09 (3.08) RFU
C=C(C)[C@@H]1CCC(C)=C[C@H]1c1c(O)cc(CCCCC)cc1O | 1.28 (0.03) RFU

Hey, quick one: what's mean maximal Ca^2+ signal RFU achieved 0-180 s (SD), TRPA1 for each of these?
1. CCCCCc1cc(O)c(C/C=C(\C)CCC=C(C)C)c(O)c1
2. CCCCCc1cc(O)c2c(c1)OC(C)(C)c1ccc(C)cc1-2
3. CCCCCc1cc(O)c(C/C=C(\C)CCC=C(C)C)c(O)c1C(=O)O
4. C=C(C)[C@@H]1CCC(C)=C[C@H]1c1c(O)cc(CCC)cc1O

10.22 (1.29) RFU
10.97 (0.4) RFU
3.65 (1.11) RFU
16.17 (2.68) RFU

* * *

# assay-target: TRPV1 (Rattus norvegicus, UniProt O35433)
# Construct: FLAG; expressed in transfected cells
# method-summary: Whole-cell patch clamp of TRPV1 currents in HEK293 cells overexpressing TRPV1 (HEK293-V1)
# Type: cell-based
# applied-conditions: dose 30 micromolar
# Protocol: HEK TRexTRPV1 were cultured in DMEM, 10% Fetal Bovine Serum, 2 mM Lglutamine, 10 μg/ml Blasticidin (Calbiochem, San Diego Calif.), 400 μg/ml Zeocin (InvivoGen, San Diego Calif.), where indicated transgene expression was induced using 1 μg/ml Tetracycline for 16-24 hrs. […] This technique is used to study ionic currents from HEK293-V1. The voltage across the cell membrane is controlled and the ionic currents associated with changes in voltage are measured. […]
Please go through the items and note down their Time to max.
Give bare numbers, in s.

Below, 3 compounds whose answers are already recorded.
C=C(C)[C@@H]1CCC(C)=C[C@H]1c1c(O)cc(CCCCC)cc1O [CBD, Cannabidiol] | 180
CCCCCc1cc(O)c2c(c1)OC(C)(C)c1ccc(C)cc1-2 [CBN, Cannabinol] | 176
C=C(C)[C@@H]1CCC(C)=C[C@H]1c1c(O)cc(CCC)cc1O [CBDV, Cannabidivarin] | 136

What Time to max value was documented for this compound, CCCCCc1cc(O)c(C/C=C(\C)CCC=C(C)C)c(O)c1 [CBG, Cannabigerol] ?
94

* * *

# assay-target: TRPV1 (Rattus norvegicus)
# Construct: FLAG; expressed in transfected cells
# method-summary: Whole-cell patch clamp of TRPV1 currents in HEK293 cells overexpressing TRPV1 (HEK293-V1)
# Type: cell-based
# applied-conditions: cannabinoid at 50 (FIGS. 3A, 4A, 6A, 7A), applied at data point 60
assay-metric: inward current induced

CCCCCc1cc(O)c2c(c1)OC(C)(C)c1ccc(C)cc1-2 [CBN, Cannabinol] | 0.5-2 nA

Hey, quick one: what's inward current induced for each of these?
1. CCCCCc1cc(O)c(C/C=C(\C)CCC=C(C)C)c(O)c1 [CBG, Cannabigerol]
2. C=C(C)[C@@H]1CCC(C)=C[C@H]1c1c(O)cc(CCCCC)cc1O [CBD, Cannabidiol]
3. C=C(C)[C@@H]1CCC(C)=C[C@H]1c1c(O)cc(CCC)cc1O [CBDV, Cannabidivarin]

1: 4-5 nA; 2: 4-6 nA; 3: 2-3 nA

* * *

Please go through the items and note down their mean maximal Ca^2+ signal RFU achieved 0-180 s (SD), TRPV1.
# assay-target: TRPV1 (Rattus norvegicus, UniProt O35433)
# Construct: FLAG; expressed in transfected cells
# method-summary: Bulk calcium assay (Fluo-4) in HEK-TRPV1 overexpressing cells
# Type: cell-based
# applied-conditions: bulk calcium assay; TRPV1; mean (SD)

C=C(C)[C@@H]1CCC(C)=C[C@H]1c1c(O)cc(CCCCC)cc1O | 11.88 (0.23) RFU
C=C(C)[C@@H]1CCC(C)=C[C@H]1c1c(O)cc(CCCCC)c(C(=O)O)c1O | 4.62 (0.66) RFU
CCCCCc1cc(O)c(C/C=C(\C)CCC=C(C)C)c(O)c1 | 0.41 (0.04) RFU
CCCCCc1cc(O)c2c(c1)OC(C)(C)c1ccc(C)cc1-2 | 0.89 (0.08) RFU
CCCCCc1cc(O)c(C/C=C(\C)CCC=C(C)C)c(O)c1C(=O)O | 13.77 (0.31) RFU

Hey, quick one: what's mean maximal Ca^2+ signal RFU achieved 0-180 s (SD), TRPV1 for each of these?
1. CCCCCc1cc(O)c2c(c1)OC(C)(CCC=C(C)C)C=C2 (stereo not shown)
2. C=C(C)[C@@H]1CCC(C)=C[C@H]1c1c(O)cc(CCC)cc1O

["3.23 (0.12) RFU", "6.51 (0.07) RFU"]

* * *

# assay-target: TRPV1 (Rattus norvegicus, UniProt O35433)
# Construct: FLAG; expressed in transfected cells
# method-summary: Whole-cell patch clamp of TRPV1 currents in HEK293 cells overexpressing TRPV1 (HEK293-V1)
# Assay type: cell-based
# applied-conditions: dose 50 micromolar; 120 s; Ca 1 mM external, unbuffered internal calcium
assay-metric: Max I amplitude (nA)
Numbers only, in nA.

Below, 3 compounds whose answers are already recorded.
CCCCCc1cc(O)c2c(c1)OC(C)(C)c1ccc(C)cc1-2 | 1.5
C=C(C)[C@@H]1CCC(C)=C[C@H]1c1c(O)cc(CCC)cc1O | 0.9
C=C(C)[C@@H]1CCC(C)=C[C@H]1c1c(O)cc(CCCCC)cc1O | 1.6

Now for a further compound.
What Max I amplitude value was documented for this compound, CCCCCc1cc(O)c(C/C=C(\C)CCC=C(C)C)c(O)c1 ?
0.7

* * *

Please go through the items and note down their mean maximal Ca^2+ signal RFU achieved 0-180 s (SD), TRM8.
# assay-target: TRPM8 (Homo sapiens, UniProt Q7Z2W7)
# Construct: host or cells: HEK TRex293
# Sequence (Q7Z2W7 whole entry): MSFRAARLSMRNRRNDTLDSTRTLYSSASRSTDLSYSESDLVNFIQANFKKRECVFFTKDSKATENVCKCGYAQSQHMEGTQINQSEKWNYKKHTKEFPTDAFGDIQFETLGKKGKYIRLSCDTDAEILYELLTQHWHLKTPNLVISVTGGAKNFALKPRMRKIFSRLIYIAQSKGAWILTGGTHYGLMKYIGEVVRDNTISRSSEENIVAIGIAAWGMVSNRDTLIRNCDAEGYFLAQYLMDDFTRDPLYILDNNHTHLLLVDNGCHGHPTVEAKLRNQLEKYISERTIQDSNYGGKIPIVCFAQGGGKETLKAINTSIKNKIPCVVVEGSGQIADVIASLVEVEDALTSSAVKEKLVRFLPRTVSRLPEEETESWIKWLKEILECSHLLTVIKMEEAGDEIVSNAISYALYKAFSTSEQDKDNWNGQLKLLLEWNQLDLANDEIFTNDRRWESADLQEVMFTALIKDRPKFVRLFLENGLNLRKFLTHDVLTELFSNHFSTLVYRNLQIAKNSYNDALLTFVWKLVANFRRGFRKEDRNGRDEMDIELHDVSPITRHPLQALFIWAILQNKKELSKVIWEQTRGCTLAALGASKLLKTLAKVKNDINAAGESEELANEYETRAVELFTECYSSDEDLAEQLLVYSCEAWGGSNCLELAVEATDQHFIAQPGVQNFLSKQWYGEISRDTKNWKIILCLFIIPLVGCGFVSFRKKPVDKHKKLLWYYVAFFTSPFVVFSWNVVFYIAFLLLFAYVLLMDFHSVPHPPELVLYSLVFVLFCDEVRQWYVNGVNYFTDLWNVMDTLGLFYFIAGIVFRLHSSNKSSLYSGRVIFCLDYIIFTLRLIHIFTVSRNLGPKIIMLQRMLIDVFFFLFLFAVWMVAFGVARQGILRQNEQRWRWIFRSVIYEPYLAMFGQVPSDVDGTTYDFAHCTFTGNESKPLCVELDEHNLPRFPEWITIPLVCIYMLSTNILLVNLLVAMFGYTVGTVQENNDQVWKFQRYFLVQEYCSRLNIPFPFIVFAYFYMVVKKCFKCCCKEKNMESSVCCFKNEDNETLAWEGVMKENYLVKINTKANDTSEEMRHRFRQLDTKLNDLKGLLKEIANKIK
# method-summary: Bulk calcium assay (Fluo-4) in HEK cells overexpressing TRPM8
# Format: cell-based
# Procedure: HEK TRexTRPV1 were cultured in DMEM, 10% Fetal Bovine Serum, 2 mM Lglutamine, 10 μg/ml Blasticidin (Calbiochem, San Diego Calif.), 400 μg/ml Zeocin (InvivoGen, San Diego Calif.), where indicated transgene expression was induced using 1 μg/ml Tetracycline for 16-24 hrs. Unless otherwise indicated, basal expression of TRPV1 without induction was sufficient for these studies, and comparisons were made to untransfected HEK where needed. […]

CCCCCc1cc(O)c(C/C=C(\C)CCC=C(C)C)c(O)c1C(=O)O [CBGA, Cannabigerolic Acid] | 0.3 (0.01) RFU
C=C(C)[C@@H]1CCC(C)=C[C@H]1c1c(O)cc(CCCCC)c(C(=O)O)c1O [CBDA, Cannabidiolic Acid] | 1.92 (0.04) RFU
CCCCCc1cc(O)c2c(c1)OC(C)(CCC=C(C)C)C=C2 (stereo not shown) [CBC, Cannabichromene] | 0.97 (0.03) RFU
C=C(C)[C@@H]1CCC(C)=C[C@H]1c1c(O)cc(CCCCC)cc1O [CBD, Cannabidiol] | 1.12 (0.02) RFU
C=C(C)[C@@H]1CCC(C)=C[C@H]1c1c(O)cc(CCC)cc1O [CBDV, Cannabidivarin] | 3.89 (0.05) RFU
CCCCCc1cc(O)c2c(c1)OC(C)(C)c1ccc(C)cc1-2 [CBN, Cannabinol] | 0.09 (0.01) RFU

What mean maximal Ca^2+ signal RFU achieved 0-180 s (SD), TRM8 value was documented for this molecule, CCCCCc1cc(O)c(C/C=C(\C)CCC=C(C)C)c(O)c1 [CBG, Cannabigerol] ?
2.25 (0.46) RFU
